Attribution: patent US20130023485A1

Experiment: Solubility of Compound 1 with solubility enhancers (visual examination and analytical assay)
Conditions: Polysorbate 20 / Polysorbate 80 solution, up to 10%
Measured Property: solubility

stdin: Specify reported solubility for the substance shown: H-GYYWSWIRQPPGKGEEWIG-OH [Compound 1]
stdout: ≤ 2000 µg/mL

---

Assay: Solubility of Compound 1 with solubility enhancers (visual examination and analytical assay)
Conditions: Human Serum Albumin solution
Measured Property: solubility (µg/mL)
Answers are plain numbers, in µg/mL.

stdin: Specify reported solubility for the substance shown: H-GYYWSWIRQPPGKGEEWIG-OH [Compound 1]
stdout: 1000

---

Test: Solubility of Compound 1 with solubility enhancers (visual examination and analytical assay)
Details: 30% DMA (dimethyl-acetamide) solution
Measured Property: solubility

stdin: Specify reported solubility for the substance shown: H-GYYWSWIRQPPGKGEEWIG-OH [Compound 1]
stdout: 5000 to 9000 µg/mL
